test: Cytotoxicity against human SNB19 cells assessed as reduction in cell viability incubated for 24 hrs by MTT assay; assay type: cell-based, SNB-19; settings: SNB19 cells
Lab note: cut-off is 50 µM. Strictly less in CC50 at 24 h is yes. Exactly 50 µM or more is no.

>>> grouplabel("C=C1CC[C@H]2[C@@](C)(CCC(=O)[C@@]2(C)COC(C)=O)[C@@H]1C/C=C1/C(=O)OC[C@@H]1Oc1cccc2cccnc12")
"yes"
>>> grouplabel("C=C1CC[C@@H]2[C@]3(C)COC(C)(C)O[C@@H]3CC[C@@]2(C)[C@@H]1C/C=C1/C(=O)OC[C@H]1Oc1cccnc1[N+](=O)[O-]")
"yes"
>>> grouplabel("C=C1CC[C@H]2[C@@](C)(CCC(=O)[C@@]2(C)COC(C)=O)[C@@H]1C/C=C1/C(=O)OC[C@H]1Oc1cccc2ccc(C)nc12")
"no"
>>> grouplabel("C=C1CC[C@@H]2[C@](C)(COC(C)=O)[C@H](O)CC[C@@]2(C)[C@@H]1C/C=C1/C(=O)OC[C@H]1Oc1cccc2ccc(C)nc12")
"no"
>>> grouplabel("C=C1CC[C@H]2[C@@](C)(CCC(=O)[C@@]2(C)COC(C)=O)[C@@H]1C/C=C1/C(=O)OC[C@H]1Oc1c(Cl)cc(Cl)c2cccnc12")
"no"
>>> grouplabel("C=C1CC[C@@H]2[C@]3(C)COC(C)(C)O[C@@H]3CC[C@@]2(C)[C@@H]1C/C=C1/C(=O)OC[C@@H]1Oc1c(Cl)cc(Cl)c2cccnc12")
"yes"
>>> grouplabel("C=C1CC[C@@H]2[C@](C)(COC(C)=O)[C@H](O)CC[C@@]2(C)[C@@H]1C/C=C1/C(=O)OC[C@@H]1Oc1cccc2ccc(C)nc12")
"no"
>>> grouplabel("C=C1CC[C@@H]2[C@]3(C)COC(C)(C)O[C@@H]3CC[C@@]2(C)[C@@H]1C/C=C1/C(=O)OC[C@H]1Oc1c(Cl)cc(Cl)c2cccnc12")
"no"
>>> grouplabel("C=C1CC[C@@H]2[C@](C)(CO)[C@H](O)CC[C@@]2(C)[C@@H]1C/C=C1/C(=O)OC[C@H]1Oc1cccc2ccc(C)nc12")
"no"
>>> grouplabel("C=C1CC[C@@H]2[C@](C)(COC(C)=O)[C@H](O)CC[C@@]2(C)[C@@H]1C/C=C1/C(=O)OC[C@@H]1Oc1c(Cl)cc(Cl)c2cccnc12")
"yes"
>>> grouplabel("C=C1CC[C@H]2[C@@](C)(CCC(=O)[C@@]2(C)COC(C)=O)[C@@H]1C/C=C1/C(=O)OC[C@@H]1Oc1cccc2ccc(C)nc12")
"no"
>>> grouplabel("C=C1CC[C@@H]2[C@](C)(CO)[C@H](O)CC[C@@]2(C)[C@@H]1C/C=C1/C(=O)OC[C@@H]1Oc1ccnc2ccccc12")
"no"

Measured values drawn from ChEMBL document CHEMBL4602646 for this set.
